EMax, OVCAR 5 cells (cAMP) listing for selected binders.
# target.system: T1, RXFP1 receptor (UniProt Q9HBX9 1-757, limits assumed)
# T1 sequence (looked up): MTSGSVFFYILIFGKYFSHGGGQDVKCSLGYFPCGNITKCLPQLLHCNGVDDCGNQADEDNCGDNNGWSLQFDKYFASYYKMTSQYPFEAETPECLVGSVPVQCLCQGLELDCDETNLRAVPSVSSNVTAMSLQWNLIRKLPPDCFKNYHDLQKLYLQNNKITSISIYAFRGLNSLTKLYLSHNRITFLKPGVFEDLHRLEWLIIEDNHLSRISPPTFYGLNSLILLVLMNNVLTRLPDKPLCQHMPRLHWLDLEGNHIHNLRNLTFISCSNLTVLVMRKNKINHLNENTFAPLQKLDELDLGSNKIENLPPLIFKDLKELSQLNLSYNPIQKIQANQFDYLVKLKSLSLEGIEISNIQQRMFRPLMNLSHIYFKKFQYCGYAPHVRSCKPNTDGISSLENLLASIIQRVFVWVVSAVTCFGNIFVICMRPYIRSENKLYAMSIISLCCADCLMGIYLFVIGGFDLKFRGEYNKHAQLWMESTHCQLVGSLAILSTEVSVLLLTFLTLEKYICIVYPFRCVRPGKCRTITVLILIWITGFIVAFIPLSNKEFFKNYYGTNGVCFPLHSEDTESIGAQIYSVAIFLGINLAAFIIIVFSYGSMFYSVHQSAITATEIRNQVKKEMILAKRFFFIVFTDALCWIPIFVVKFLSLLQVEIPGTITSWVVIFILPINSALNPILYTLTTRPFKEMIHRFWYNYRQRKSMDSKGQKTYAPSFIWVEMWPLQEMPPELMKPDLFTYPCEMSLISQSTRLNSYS
# measurement.description: cell-based or functional assay
*1 amine or outer side, *2 acyl side, *3 side chain or, on linkers, in order; H or OH if unused. Primed or numbered codes have the meaning given here. Side-chain parts run from the residue outwards. [ ]: non-standard residue; d: D form. The star is where a group is joined. γGlu = O=C(O)[C@H](CCC(=O)[*:2])N[*:1]; Stearoyl = CCCCCCCCCCCCCCCCCC(=O)*; Palmitoyl = CCCCCCCCCCCCCCCC(=O)*; Myristoyl = CCCCCCCCCCCCCC(=O)*; αMeK = C[C@](N)(CCCCN)C(=O)O; Nle = CCCC[C@H](N)C(=O)O; PEG2′ = PEG2 spacer unit; Aib = CC(C)(N)C(=O)O

{"binder": "Ac-LEGREKVRAQI[Aib][Aib]EG[Nle]STWS[Aib]RKKK([PEG2′-PEG2′-PEG2′-PEG2′-γGlu-γGlu-γGlu-Stearoyl])-NH2 [peptide of SEQ ID NO: 92]", "EMax, OVCAR 5 cells (cAMP)": "82%"}
{"binder": "Ac-LEGREKVRAK(Ac)I[Aib][Aib]EG[Nle]STWS[Aib]RKK(Ac)K([PEG2′-PEG2′-PEG2′-PEG2′-γGlu-γGlu-γGlu-γGlu-Palmitoyl])-NH2 [peptide of SEQ ID NO: 130]", "EMax, OVCAR 5 cells (cAMP)": "93%"}
{"binder": "Ac-LEGREKVRAK(Ac)I[Aib][Aib]EG[Nle]STWS[Aib]RKKK([PEG2′-PEG2′-γGlu-γGlu-γGlu-Palmitoyl])-NH2 [peptide of SEQ ID NO: 60]", "EMax, OVCAR 5 cells (cAMP)": "91%"}
{"binder": "Ac-LEGREKVRAK(Ac)I[Aib][Aib]EGQSTFS[αMeK]RAK(Ac)[PEG2′][PEG2′][PEG2′][PEG2′]K([γGlu-γGlu-γGlu-γGlu-Myristoyl])-NH2 [peptide of SEQ ID NO: 190]", "EMax, OVCAR 5 cells (cAMP)": "93%"}
